System: Ba/F3-FGFR1 cells
Assay Explanation: Cell proliferation inhibition, CTG method (Ba/F3-FGFR1)
Type: cell-based
Condition Info: 72 hrs
Endpoint: IC50 (nM)
Record the value in nM, omitting the unit from your answer.

C[C@@H](Oc1ccc2[nH]nc(-c3cnc(C4=CCS(=O)(=O)CC4)c(F)c3)c2n1)c1c(Cl)cncc1Cl [Cpd-03A] | 14.2

Now consider a different compound.
What value of IC50 has been reported for the following compound? Cc1nn(CC(C)(C)O)c(C)c1-c1ncc(-c2n[nH]c3ccc(O[C@H](C)c4c(Cl)cncc4Cl)nc23)cc1F [Cpd-161A] 98.3

----------
Tested On: FGFR3 (Homo sapiens, UniProt P22607)
Construct: purchased Invitrogen PR4631B
Sequence (P22607 23-806): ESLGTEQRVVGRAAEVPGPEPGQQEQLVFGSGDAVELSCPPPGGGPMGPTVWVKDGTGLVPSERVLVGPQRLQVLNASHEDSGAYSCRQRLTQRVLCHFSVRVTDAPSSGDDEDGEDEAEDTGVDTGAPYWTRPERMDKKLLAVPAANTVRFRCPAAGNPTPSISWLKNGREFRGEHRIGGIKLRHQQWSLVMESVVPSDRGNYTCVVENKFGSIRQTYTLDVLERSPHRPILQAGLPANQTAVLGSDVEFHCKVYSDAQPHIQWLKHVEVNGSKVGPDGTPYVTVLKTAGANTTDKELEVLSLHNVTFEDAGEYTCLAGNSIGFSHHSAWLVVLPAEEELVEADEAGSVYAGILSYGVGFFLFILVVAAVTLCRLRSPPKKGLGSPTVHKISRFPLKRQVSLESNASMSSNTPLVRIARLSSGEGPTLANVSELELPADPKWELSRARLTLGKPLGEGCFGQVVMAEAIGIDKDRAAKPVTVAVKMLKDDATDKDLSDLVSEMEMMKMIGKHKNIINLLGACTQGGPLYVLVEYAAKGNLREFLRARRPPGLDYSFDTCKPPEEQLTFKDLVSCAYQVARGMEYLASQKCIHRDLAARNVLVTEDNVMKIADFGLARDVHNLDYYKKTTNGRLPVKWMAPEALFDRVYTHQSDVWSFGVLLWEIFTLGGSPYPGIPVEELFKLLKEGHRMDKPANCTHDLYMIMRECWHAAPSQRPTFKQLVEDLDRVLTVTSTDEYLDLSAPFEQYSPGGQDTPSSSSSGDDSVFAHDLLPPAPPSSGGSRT
Assay Explanation: Kinase inhibitory activity by HTRF method (FGFR3)
Assay type: biochemical
Condition Info: highest concentration 3000 nM, 10 concentrations, duplicate
Endpoint: IC50 (nM)
Record the value in nM, omitting the unit from your answer.

CC(Oc1ccc2[nH]nc(-c3ccc(S(C)(=N)=O)nc3)c2n1)c1c(Cl)cncc1Cl (single isomer, unassigned) [Cpd-01D] | 6.2

What value of IC50 has been reported for the following compound? CC(Oc1ccc2[nH]nc(-c3ccc(S(C)(=N)=O)nc3)c2n1)c1c(Cl)cncc1Cl (single isomer, unassigned) [Cpd-01C] 4.8
